This section presents molecules with their documented IC50 values.
- target.system: UniProt:P35270
- Sequence (P35270 whole entry): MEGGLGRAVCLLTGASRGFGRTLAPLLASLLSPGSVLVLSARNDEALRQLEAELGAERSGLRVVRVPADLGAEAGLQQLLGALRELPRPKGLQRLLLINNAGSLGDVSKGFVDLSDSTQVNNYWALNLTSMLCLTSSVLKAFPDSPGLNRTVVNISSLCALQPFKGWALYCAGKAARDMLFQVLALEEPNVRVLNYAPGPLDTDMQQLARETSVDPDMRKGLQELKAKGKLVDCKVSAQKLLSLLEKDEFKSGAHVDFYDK
experimental.readout: IC50 (nM)

INSERT INTO assay_data (molecule, reported_result) VALUES
  ('Cc1c(C(=O)N2CCC3(CC3)C2)cnn1-c1nn2cccc2c(=O)[nH]1', 2),
  ('O=C(c1ccnc(-c2nc3ccsc3c(=O)[nH]2)c1)N1CCC(c2c[nH]c3ccccc23)CC1', 20),
  ('O=C(c1ccnc(-c2nc3ccsc3c(=O)[nH]2)c1)N1CCC(c2nc3ccccc3s2)CC1', 20),
  ('Cc1c(C(=O)N2CCN(c3nc(-c4ccccc4C#N)cs3)CC2)cnn1-c1nn2cccc2c(=O)[nH]1', 3),
  ('O=C(O)c1cnn(-c2nc3c(c(=O)[nH]2)CCC3)c1C1CC1', 30),
  ('COc1ccccc1NC(=O)c1cnn(-c2nc(C)cc(=O)[nH]2)c1C', 70),
  ('Cc1c(C(=O)N2CCc3nc(C(F)(F)F)sc3C2)cnn1-c1nn2cccc2c(=O)[nH]1', 5),
  ('Cc1cc(=O)[nH]c(-n2ncc(C(=O)N3CCC(C)(C)C3)c2C)n1', 5),
  ('Cc1c(C(=O)N2CCN(c3ncc(-c4cccc(Cl)c4)o3)CC2)cnn1-c1nn2cccc2c(=O)[nH]1', 9),
  ('Cc1c(C(=O)N2CC(N3CCCC(F)(F)C3)C2)cnn1-c1nn2cccc2c(=O)[nH]1', 3),
  ('Cc1c(C(=O)N2CC3CCCC(C2)N3C(=O)OC(C)(C)C)cnn1-c1nn2cccc2c(=O)[nH]1', 1),
  ('Cc1c(C(=O)N2CC3(CCN(C(=O)OC(C)(C)C)C3)C2)cnn1-c1nn2cccc2c(=O)[nH]1', 2),
  ('Cc1cc(=O)[nH]c(-n2ncc(C(=O)N3c4ccccc4C[C@H]3C)c2C)n1 (single isomer, unassigned)', 10),
  ('Cc1c(C(=O)N2CCN(S(=O)(=O)c3cccc4nsnc34)CC2)cnn1-c1nn2cccc2c(=O)[nH]1', 2),
  ('Cc1c(C(=O)N2CCC(C(=O)N3CCCCC3)(C(F)(F)F)CC2)cnn1-c1nn2cccc2c(=O)[nH]1', 1),
  ('Cc1c(C(=O)N(C)Cc2ccc3ncccc3c2)cnn1-c1nc2c(c(=O)[nH]1)CCC2', 3),
  ('Cc1c(C(=O)N2CCC3(CC2)CC3C(=O)N2CCCC2)cnn1-c1nn2cccc2c(=O)[nH]1 (stereo not drawn)', 2),
  ('Cc1cc(=O)[nH]c(-n2ncc(CN3CCc4ccccc4C3)c2C)n1', 40),
  ('Cc1c(C(=O)N2CCN(CC(F)(F)F)CC2)cnn1-c1nc2[nH]ncc2c(=O)[nH]1', 600),
  ('Cc1c(C(=O)N2C3CC2CN(CC(F)(F)F)C3)cnn1-c1nn2cccc2c(=O)[nH]1', 1),
  ('Cc1c(C(=O)N2CCC(C(C)C#N)CC2)cnn1-c1nn2cccc2c(=O)[nH]1 (stereo not drawn)', 1),
  ('Cc1c(C(=O)N2CCC(c3nc(-c4ccccn4)cs3)CC2)cnn1-c1nn2cccc2c(=O)[nH]1', 1),
  ('Cc1c(C(=O)N2CCN(CC(F)(F)F)CC2)cnn1-c1nc2c(c(=O)[nH]1)COC2', 9),
  ('Cc1cc(=O)[nH]c(-n2ncc(C(=O)N3CCOCC3)c2C)n1', 20),
  ('Cc1c(C(=O)N2CCC3(CC2)CC3C(=O)N2CCCC2)cnn1-c1nc2c(c(=O)[nH]1)CCC2 (stereo not drawn)', 3),
  ('Cc1c(C(=O)N2CCC(c3cccnc3F)CC2)cnn1-c1nn2cccc2c(=O)[nH]1', 1),
  ('COc1ccc(OC)c(S(=O)(=O)N2CCN(C(=O)c3cnn(-c4nn5cccc5c(=O)[nH]4)c3C)CC2)c1', 2),
  ('CC[C@H](C#N)C1CCN(C(=O)c2cnn(-c3nc4c(c(=O)[nH]3)CCC4)c2C)CC1', 1),
  ('Cc1c(C(=O)N2CC(c3ccnc(C(F)(F)F)c3)C2)cnn1-c1nn2cccc2c(=O)[nH]1', 2),
  ('Cc1c(C(=O)N2CC(c3ccnc(F)c3)C2)cnn1-c1nn2cccc2c(=O)[nH]1', 2),
  ('O=C(c1cn(-c2nn3cccc3c(=O)[nH]2)nn1)N1CC2(C1)CC(F)(F)C2', 3),
  ('Cc1c(C(=O)N2CCCN(C3CC3)CC2)cnn1-c1nn2cccc2c(=O)[nH]1', 3),
  ('Cc1c(C(=O)N2CC[C@H]3CCCC[C@@H]3C2)cnn1-c1nc2ccsc2c(=O)[nH]1', 10);
